Target: T1, GFP-9S library array, motif 4 ND N98T;D124E (synthetic construct, N98T;D124E)
T1 chain: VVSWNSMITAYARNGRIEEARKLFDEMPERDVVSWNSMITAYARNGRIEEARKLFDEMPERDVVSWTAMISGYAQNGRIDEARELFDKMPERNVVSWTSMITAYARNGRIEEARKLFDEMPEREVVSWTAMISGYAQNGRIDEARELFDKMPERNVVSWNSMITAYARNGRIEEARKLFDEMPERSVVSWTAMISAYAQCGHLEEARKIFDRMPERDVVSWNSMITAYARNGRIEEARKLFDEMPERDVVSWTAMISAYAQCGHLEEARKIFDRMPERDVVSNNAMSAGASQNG
Test: high-throughput RNA pulldown from lysate on Ni-NTA beads; HRP: 50 mM Tris pH 8, 150 mM NaCl, 1 mM beta-mercaptoethanol, 50 ug/ml BSA, 3 ug/ml yeast RNA, 0.5% heparin; ITC and FP: Tris pH 8, 200 mM KCl, 5% glycerol; MST: 50 mM Tris pH 8, 200 mM NaCl, 1 mM DTT, BSA, heparin, 0.05% Tween 20
Conditions: tags: N-terminal His-eGFP; label: 5' Cy5
experimental endpoint: pKd
The meaning of pKd here: minus log10 of the concentration in molar units.

Provide measured pKd value, entry: AUUACACGUGA (ssRNA) [Cy5-rpoA]
6.59

Provide measured pKd value, entry: AUUAGACGUGA (ssRNA) [Cy5-rpoA-G]
7.88
